testedOn: Nucleotide-binding oligomerization domain-containing protein 2 (Homo sapiens, UniProt Q9HC29)
Sequence (Q9HC29 whole entry, the tested form may be a part): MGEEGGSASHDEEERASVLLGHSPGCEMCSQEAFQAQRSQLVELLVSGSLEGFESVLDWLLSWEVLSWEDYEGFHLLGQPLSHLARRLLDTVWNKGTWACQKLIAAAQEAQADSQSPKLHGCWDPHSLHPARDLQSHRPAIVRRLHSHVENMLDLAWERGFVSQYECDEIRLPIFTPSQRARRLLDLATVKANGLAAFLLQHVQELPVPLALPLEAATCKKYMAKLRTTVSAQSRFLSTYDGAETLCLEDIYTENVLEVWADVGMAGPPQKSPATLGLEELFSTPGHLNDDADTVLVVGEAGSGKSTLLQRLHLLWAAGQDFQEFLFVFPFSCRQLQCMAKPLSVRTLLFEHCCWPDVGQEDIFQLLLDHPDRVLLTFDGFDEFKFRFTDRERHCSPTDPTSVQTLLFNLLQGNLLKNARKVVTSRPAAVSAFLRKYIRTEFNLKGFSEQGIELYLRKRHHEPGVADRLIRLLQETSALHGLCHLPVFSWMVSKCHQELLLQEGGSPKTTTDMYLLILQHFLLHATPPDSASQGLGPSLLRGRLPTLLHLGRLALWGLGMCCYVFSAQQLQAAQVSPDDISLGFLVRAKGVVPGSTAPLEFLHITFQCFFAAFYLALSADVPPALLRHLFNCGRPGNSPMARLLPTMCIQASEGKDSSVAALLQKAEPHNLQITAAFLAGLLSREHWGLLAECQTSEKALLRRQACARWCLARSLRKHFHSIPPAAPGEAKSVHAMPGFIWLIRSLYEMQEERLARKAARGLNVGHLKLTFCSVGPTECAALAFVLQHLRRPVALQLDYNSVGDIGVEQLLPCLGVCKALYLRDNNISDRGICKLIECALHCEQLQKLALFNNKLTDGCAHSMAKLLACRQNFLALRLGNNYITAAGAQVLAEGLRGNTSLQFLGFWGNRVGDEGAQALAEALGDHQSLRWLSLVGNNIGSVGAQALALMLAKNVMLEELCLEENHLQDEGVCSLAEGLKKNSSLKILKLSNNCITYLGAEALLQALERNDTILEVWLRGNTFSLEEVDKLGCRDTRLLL
assayText: inhibition of NOD2-driven NF-kB reporter – cell-based, luminescence, uHTS, HEK293 (AID 1566)
Assay type: functional
Active and inactive are the calls of the source. No rule for the calls is given here.
Would you mind telling me the reported EC50 of each entry?

Go through the items and report each one's EC50.
1. CCOc1cc(/C=C2\C(=N)N3N=C(S(C)(=O)=O)SC3=NC2=O)ccc1OCCOc1cccc(OC)c1
2. COc1cc(OC)c(OC)cc1/C=C1\CCC/C(=C\c2cc(OC)c(OC)cc2OC)C1=O
3. Fc1ccc(NC(=S)Nc2nccs2)cc1
4. Cc1cc(/C=N/Nc2nc(N)ncc2[N+](=O)[O-])c(C)n1-c1ccccc1F

1. 14.5 µM (active)
2. 13 µM (active)
3. > 20 µM (inactive)
4. < 0.31 µM (inactive)

Which EC50 is reported for this molecule? CCn1c(SCC(=O)Nc2nc(-c3ccccc3)cs2)nnc1-c1ccccc1
7.91 µM (active)
